molecular target: 26S proteasome non-ATPase regulatory subunit 14 (Homo sapiens); test: inhibition of proteasome subunit RPN11 – biochemical, fluorescence polarization, uHTS hits, confirmation (AID 602368); type: functional
Sequence (O00487 whole entry): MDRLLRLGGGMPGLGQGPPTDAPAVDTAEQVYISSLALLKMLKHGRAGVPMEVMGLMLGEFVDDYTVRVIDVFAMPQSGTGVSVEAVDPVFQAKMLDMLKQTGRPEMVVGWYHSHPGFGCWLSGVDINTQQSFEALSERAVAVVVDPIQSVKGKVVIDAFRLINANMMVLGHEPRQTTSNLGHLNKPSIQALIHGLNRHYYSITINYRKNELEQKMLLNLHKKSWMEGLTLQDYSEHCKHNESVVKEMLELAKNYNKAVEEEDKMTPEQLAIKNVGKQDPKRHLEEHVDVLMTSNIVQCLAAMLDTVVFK
Calls of active or inactive are those of the source.
Measured IC50 of individual entries

// below: answered compounds
COc1ccccc1NC(=O)CSc1nc(N)c(C#N)cc1C#N = 36.2 µM (active)
CCOC(=O)Cc1csc(NC(=O)c2sc3nc4ccc(C)cc4cc3c2N)n1 = 33.9 µM (active)
COc1ccc(OC)c(N2C(=O)/C(=C/Nc3c(C)n(C)n(-c4ccccc4)c3=O)C(=O)NC2=S)c1 = 34.7 µM (active)
N#C/C(=C\C1=C(N2CCOCC2)C(=C\c2ccc(Cl)cc2)/CC1)C(=O)Nc1ccccc1F = 6.46 µM (active)
CC(C)NC(=S)N/N=C/c1sc(N2CCCCC2)nc1-c1cccs1 = 9.24 µM (active)

Please examine the following record next.
Task: Enter IC50 (test system 26S proteasome non-ATPase regulatory subunit 14 (Homo sapiens)) for O=C(N/N=C/c1ccc(Cl)cc1Cl)c1ccc2[nH]cnc2c1
Result: 20.9 µM (active)

---

This document collects AC50 values reported for Cytochrome P450 2C9 (Homo sapiens).

Some entries whose results are on file:
O=C(COc1ccc2ccccc2c1)N1CCN(C(=O)c2cccnc2)CC1 = 31.6 µM (inconclusive)
CCOc1ccc(C(C)=O)cc1N1C(=O)C2C3C=CC(C3=C(C)C)C2C1=O (stereo unspecified) = 5.62 µM (inconclusive)
Cc1sc2ncnc(OCC(=O)NC(C)C)c2c1C = 22.4 µM (inconclusive)
CCOC(=O)c1nnn(-c2nc(OC)nc(N3CCCCC3)n2)c1-c1ccccc1 = 28.2 µM (inconclusive)
CCOC(=O)N1CCN(Cc2nc3c(c(=O)[nH]c(=O)n3C)n2Cc2ccccc2C)CC1 = 35.5 µM (inconclusive)

Task: Fill in AC50 for COCCNC(=O)c1sc2nc(-c3ccccc3)cn2c1C tested with Cytochrome P450 2C9 (Homo sapiens).
Sequence (P11712 whole entry): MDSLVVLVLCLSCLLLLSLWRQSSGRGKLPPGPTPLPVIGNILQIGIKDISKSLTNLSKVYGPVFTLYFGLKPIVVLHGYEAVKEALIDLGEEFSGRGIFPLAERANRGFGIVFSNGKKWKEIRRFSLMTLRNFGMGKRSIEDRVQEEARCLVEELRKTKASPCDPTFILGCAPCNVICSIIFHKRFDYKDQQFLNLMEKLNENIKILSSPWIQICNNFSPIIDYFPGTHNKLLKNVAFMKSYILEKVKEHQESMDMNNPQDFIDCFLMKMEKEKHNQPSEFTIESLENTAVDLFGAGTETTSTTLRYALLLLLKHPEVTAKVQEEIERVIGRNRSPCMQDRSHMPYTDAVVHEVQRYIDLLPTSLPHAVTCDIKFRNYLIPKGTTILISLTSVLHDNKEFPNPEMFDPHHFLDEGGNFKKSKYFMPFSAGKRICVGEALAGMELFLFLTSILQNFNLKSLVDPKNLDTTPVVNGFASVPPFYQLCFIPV
Result: 28.2 µM (inconclusive)

Task: State AC50 on Cytochrome P450 2C9 (Homo sapiens). Entry: COc1ccc(Sc2ccc(NC(=O)c3ccccc3Cl)cc2C#N)cc1
Result: 2.51 µM (inconclusive)

Task: System Cytochrome P450 2C9 (Homo sapiens). Read-out AC50. Item COc1cccc(Cn2c(=O)c(-c3ccccc3)nc3cnc(N(C)C)nc32)c1 . Report value.
Result: 15.8 µM (inconclusive)

Task: Under Cytochrome P450 2C9 (Homo sapiens), report AC50 for CCOc1c2ccc(C(=O)NCc3cc(C(F)(F)F)cc(C(F)(F)F)c3)cc2nn1C
Result: 31.6 µM (inconclusive)

Task: Print Cytochrome P450 2C9 (Homo sapiens) AC50 for CCC(=O)n1nc(-c2ccc(OC)cc2)nc1N .
Result: 0.0562 µM (inconclusive)

Task: Please respond with reported AC50 (system Cytochrome P450 2C9 (Homo sapiens)) for CCCn1nnnc1NC(=O)c1ccc(C)cc1Cl .
Result: 0.2 µM (inconclusive)

---

target: Fatty acid synthase (Homo sapiens); assay: inhibition of human FAS-TE enzyme activity – biochemical, endpoint fluorescence intensity, uHTS hits, dose response (AID 624327); format: functional;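 note: fluorescence from hydrolysis of an O-methyl fluorescein acyl ester substrate by the enzyme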
Sequence (P49327 whole entry): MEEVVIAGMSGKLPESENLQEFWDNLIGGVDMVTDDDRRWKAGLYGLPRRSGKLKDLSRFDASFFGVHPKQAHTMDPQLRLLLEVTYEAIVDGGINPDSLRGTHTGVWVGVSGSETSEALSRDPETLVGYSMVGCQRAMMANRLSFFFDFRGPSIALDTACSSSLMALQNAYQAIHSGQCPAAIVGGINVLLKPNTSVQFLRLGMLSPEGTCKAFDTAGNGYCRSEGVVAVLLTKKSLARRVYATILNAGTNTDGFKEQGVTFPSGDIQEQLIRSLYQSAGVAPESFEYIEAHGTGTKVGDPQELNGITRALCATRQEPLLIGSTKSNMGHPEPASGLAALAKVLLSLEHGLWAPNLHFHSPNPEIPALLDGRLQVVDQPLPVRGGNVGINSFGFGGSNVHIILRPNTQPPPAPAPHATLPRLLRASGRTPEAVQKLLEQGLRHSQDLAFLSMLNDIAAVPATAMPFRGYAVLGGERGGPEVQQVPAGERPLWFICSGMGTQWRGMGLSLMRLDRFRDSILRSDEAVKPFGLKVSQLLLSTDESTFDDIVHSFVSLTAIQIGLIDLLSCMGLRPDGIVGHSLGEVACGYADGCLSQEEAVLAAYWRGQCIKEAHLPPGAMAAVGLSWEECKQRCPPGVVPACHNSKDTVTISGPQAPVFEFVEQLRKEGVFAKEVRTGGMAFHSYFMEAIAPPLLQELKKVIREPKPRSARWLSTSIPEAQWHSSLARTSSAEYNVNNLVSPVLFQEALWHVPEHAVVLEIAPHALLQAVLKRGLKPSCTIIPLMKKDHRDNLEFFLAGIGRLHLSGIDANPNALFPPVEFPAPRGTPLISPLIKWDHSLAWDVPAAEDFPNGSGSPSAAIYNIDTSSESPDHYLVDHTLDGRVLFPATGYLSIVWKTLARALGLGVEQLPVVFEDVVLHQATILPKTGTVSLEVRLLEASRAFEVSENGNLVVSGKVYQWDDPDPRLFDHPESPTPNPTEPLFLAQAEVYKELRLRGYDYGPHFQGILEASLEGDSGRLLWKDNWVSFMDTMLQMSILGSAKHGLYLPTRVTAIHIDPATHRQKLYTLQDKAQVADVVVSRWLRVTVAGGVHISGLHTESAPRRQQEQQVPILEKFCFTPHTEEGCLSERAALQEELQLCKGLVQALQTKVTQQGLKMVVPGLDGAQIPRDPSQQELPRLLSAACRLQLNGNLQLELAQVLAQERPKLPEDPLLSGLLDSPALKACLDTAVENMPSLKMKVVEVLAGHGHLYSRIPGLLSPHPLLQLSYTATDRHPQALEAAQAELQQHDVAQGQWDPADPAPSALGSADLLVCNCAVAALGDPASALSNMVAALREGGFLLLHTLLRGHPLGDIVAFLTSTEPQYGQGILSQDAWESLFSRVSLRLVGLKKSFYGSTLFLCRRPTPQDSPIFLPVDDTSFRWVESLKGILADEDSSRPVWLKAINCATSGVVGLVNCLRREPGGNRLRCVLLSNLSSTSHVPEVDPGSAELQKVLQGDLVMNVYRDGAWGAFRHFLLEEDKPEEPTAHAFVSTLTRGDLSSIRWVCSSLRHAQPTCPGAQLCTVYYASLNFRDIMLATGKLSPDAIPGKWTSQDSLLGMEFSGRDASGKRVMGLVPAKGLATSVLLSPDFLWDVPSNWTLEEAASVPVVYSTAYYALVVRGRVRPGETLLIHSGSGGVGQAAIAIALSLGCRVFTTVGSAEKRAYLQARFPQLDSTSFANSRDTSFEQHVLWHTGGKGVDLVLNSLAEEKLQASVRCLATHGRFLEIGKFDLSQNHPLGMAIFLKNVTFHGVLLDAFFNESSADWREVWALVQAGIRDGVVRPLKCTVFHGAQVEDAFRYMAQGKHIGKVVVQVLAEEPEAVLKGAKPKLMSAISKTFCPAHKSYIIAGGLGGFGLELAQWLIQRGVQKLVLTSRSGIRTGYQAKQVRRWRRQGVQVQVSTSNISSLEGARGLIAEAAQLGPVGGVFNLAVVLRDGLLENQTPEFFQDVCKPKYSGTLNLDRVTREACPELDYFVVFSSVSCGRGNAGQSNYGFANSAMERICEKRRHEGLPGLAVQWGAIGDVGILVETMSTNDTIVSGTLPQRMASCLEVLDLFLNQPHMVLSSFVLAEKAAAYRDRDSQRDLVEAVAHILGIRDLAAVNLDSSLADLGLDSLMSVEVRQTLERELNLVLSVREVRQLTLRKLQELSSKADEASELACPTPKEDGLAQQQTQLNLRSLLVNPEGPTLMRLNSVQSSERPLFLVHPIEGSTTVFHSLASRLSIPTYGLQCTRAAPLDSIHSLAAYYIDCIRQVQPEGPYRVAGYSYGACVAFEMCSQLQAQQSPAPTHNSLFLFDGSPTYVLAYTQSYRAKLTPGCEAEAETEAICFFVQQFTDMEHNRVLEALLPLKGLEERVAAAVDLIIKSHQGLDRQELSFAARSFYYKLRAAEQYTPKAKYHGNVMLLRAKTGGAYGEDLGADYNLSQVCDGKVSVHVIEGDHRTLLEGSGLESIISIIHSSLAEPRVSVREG
The source made the active and inactive calls.
Listed below: IC50 values for each entry.

Cn1c(-c2ccccc2)cnc1NCc1cccc([N+](=O)[O-])c1 = 6.81 µM (active)
O=C(CCNC(=O)c1ccc([N+](=O)[O-])cc1)NCCc1ccc(Cl)cc1 = 8.77 µM (active)
CCS(=O)(=O)c1ccc(-c2csc(-c3ccc(Cl)cc3)n2)c(Cl)c1Cl = 2.71 µM (active)
Cc1c(Br)c([N+](=O)[O-])nn1CC(=O)Nc1ccc(Cc2ccncc2)cc1 = 9.53 µM (active)
N#Cc1cc(-c2ccccc2)cn(Cc2c(Cl)cccc2Cl)c1=O = 7.42 µM (active)

Task: Indicate its recorded IC50; the compound in question is O=C(CN1CCN(c2ccccc2)CC1)Nc1cccc([N+](=O)[O-])c1
Result: 9.24 µM (active)

Task: Provide IC50 value for the following compound: O=C(COC(=O)CCc1c[nH]c2ccccc12)Nc1cc([N+](=O)[O-])ccc1Cl
Result: 15.2 µM (active)

Task: In one line, give reported IC50 of the entry O=C(c1ccc(Cl)c([N+](=O)[O-])c1)N1CCN(S(=O)(=O)c2ccc(Cl)cc2)CC1 .
Result: 14.2 µM (active)

Task: Indicate its recorded IC50; the compound in question is O=[N+]([O-])c1cccc(NC(=S)N2CCc3ccccc3C2)c1
Result: 16.5 µM (active)
